biological target: hPXR ligand binding domain (LBD) (Homo sapiens, UniProt O75469); test: LanthaScreen TR-FRET PXR competitive binding assay, hPXR LBD; conditions: read-out: EC50 for ligand displacement in hPXR
Sequence (O75469 146-433 limits assumed): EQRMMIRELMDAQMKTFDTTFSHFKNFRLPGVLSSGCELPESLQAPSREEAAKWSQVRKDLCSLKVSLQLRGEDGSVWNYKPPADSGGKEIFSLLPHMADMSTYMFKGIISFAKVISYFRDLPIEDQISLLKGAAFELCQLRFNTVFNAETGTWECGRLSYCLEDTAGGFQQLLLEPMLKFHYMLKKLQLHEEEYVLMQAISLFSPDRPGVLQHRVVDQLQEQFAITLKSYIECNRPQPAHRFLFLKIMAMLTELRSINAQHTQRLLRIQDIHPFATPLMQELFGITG
Measurement label: pEC50
On this scale, pEC50 is minus log10 of a concentration expressed in M (mol/L).

QUERY: Would you kindly share the measured pEC50 for O=C(O)CCc1c[nH]c2ccccc12 [IPA, indole-3-propionic acid] ?
RESULT: 5.68

====

target: mPXR ligand binding domain (Mus musculus); assay: LanthaScreen TR-FRET PXR competitive binding assay, mPXR LBD; details: read-out: EC50 for ligand displacement in mPXR
Sequence (O54915 143-430 limits assumed): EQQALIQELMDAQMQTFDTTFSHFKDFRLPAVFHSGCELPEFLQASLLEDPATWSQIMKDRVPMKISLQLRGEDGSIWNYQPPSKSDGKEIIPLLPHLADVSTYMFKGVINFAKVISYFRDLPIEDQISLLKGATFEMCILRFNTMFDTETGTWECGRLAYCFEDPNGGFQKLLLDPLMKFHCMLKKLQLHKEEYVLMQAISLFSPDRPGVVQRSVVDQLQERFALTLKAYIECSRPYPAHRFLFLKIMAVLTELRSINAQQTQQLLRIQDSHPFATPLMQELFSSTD
Measurement label: pEC50
Answer as the number alone; pEC50 is minus log10 of concentration in mol/L.

QUERY: Provide value of pEC50 for this record tested with mPXR ligand binding domain (Mus musculus): "O=C(O)CCc1c[nH]c2ccccc12"
RESULT: 5.96
